Target: T1, human MSLN-R3-his protein (human, UniProt Q13421 487-598)
T1 construct: also called human MSLN-R3 protein; hMSLN-R3-his; not shown: His tag
T1 sequence (Q13421 495-606): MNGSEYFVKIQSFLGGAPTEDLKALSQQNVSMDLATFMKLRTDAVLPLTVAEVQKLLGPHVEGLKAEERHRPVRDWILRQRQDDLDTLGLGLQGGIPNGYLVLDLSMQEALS
Test: ELISA, coated antigen; antibody 0.001 nM
Each item that follows carries a reported OD450.
Response body: numeric value in OD450, unit text excluded.

In the examples that follow, each entry is paired with its recorded OD450.
- binder: "S009-F3.80.22 (antibody, human IgG1, kappa, V domains shown, Human-murine chimeric antibody, human IgG1/kappa constant regions) VH: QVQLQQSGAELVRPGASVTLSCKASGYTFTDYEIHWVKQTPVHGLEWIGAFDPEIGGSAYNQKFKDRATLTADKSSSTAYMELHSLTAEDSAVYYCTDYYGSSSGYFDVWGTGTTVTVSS VL: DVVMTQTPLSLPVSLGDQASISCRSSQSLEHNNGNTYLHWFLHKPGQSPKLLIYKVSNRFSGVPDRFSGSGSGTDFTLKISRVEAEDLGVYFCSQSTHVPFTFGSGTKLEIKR"
  measurement: 0.12
- binder: "S009-F3.45.21 (antibody, human IgG1, kappa, V domains shown, Human-murine chimeric antibody, human IgG1/kappa constant regions) VH: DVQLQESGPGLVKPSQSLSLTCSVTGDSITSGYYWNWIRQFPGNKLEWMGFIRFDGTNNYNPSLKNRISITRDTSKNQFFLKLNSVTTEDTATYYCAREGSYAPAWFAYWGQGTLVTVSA VL: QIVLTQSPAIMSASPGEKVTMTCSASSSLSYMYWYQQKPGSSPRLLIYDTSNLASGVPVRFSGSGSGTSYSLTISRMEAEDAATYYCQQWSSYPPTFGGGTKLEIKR"
  measurement: 0.24
- binder: "S009-F3.74.20 (antibody, human IgG1, kappa, V domains shown, Human-murine chimeric antibody, human IgG1/kappa constant regions) VH: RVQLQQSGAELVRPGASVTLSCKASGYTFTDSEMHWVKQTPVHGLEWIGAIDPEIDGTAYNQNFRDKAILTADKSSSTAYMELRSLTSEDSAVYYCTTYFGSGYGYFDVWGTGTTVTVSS VL: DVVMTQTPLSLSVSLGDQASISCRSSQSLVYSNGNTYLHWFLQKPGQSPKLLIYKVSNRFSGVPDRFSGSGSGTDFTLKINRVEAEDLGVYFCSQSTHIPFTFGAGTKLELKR"
  measurement: 0.1
- binder: "S009-F3.38.10 (antibody, human IgG1, kappa, V domains shown, Human-murine chimeric antibody, human IgG1/kappa constant regions) VH: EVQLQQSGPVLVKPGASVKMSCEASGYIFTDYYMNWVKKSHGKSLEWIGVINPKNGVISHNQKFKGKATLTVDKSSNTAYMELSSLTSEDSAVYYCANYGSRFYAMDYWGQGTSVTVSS VL: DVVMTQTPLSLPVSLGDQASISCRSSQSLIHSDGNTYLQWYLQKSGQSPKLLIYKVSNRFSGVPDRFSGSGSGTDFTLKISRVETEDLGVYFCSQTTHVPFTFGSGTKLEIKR"
  measurement: 0.12
- binder: "S009-F3.7.3 (antibody, human IgG1, kappa, V domains shown, Human-murine chimeric antibody: murine VH/VL on human IgG1 heavy chain constant region and human kappa constant region) VH: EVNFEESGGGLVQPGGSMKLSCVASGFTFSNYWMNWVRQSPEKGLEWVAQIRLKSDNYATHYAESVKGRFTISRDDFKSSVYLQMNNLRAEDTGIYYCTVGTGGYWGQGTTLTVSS VL: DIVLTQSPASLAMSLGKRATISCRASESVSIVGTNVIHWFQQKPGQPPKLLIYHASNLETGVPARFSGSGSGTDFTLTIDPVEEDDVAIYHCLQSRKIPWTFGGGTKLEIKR"
  measurement: 0.11

Next binder, OD450 to be filled in.
Req: Please supply the value of reported OD450 for the item S009-F3.16.1 (antibody, human IgG1, kappa, V domains shown, Human-murine chimeric antibody, human IgG1/kappa constant regions) VH: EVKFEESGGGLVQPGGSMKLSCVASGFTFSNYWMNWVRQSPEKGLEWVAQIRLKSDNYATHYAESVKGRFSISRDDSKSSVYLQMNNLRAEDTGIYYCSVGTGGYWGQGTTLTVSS VL: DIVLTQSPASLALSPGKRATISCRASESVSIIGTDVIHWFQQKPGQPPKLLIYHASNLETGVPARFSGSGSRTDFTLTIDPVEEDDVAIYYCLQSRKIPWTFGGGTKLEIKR
Resp: 0.15
